procedureText: chemical genetic growth profiling, strain panel (AID 1159580);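 also: tested at 20 µM; growth read once vehicle control cultures reached saturation at 30 °C; lower values mean less growth of the strain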
conditionContext: S. cerevisiae deletion strains, growth OD, locus YPR119W, strain clb2, hits give low values
Hit rate of the full screen: of about 5,500 compounds, about 2,000 (36%) were called active. About 18% were inconclusive and are not listed. The list shows a part of the results.
Returns: string. Value is Yes if measured normalized growth is below 1, and No if it is greater than or equal to it.

Worked cases, answers included:
**Query** API: query returns whether the molecule falls strictly under 1 in normalized growth. Query: CCC(C)(C)C(=O)O[C@H]1C[C@@H](C)C=C2C=C[C@H](C)[C@H](CC[C@@H]3C[C@@H](O)CC(=O)O3)[C@H]21
**Result** No

**Query** Lab note: confirm whether the reported normalized growth for this molecule is below 1, equality not counting. molecule: C#CCCCCCCCCCCCC(O)CC(O)COC(C)=O (stereo not given)
**Result** Yes

More entries:
**Query** Is normalized growth of CCCCOC(=O)c1ccccc1C(=O)OCc1ccccc1 strictly below 1?
**Result** Yes
